All figures here come from ChEMBL document CHEMBL4251740.

Would you kindly list log10(CC50) for each of these compounds?
assay: Cytotoxicity against human MT4 cells assessed as reduction in cell viability by MTT assay; format: cell-based; details: MT4 cells
Would you kindly interpret these values as log10 of CC50 expressed in µM?

Input: Please give the documented log10(CC50) of Cc1cc(C#N)cc(C)c1Oc1nc(NC2CCN(Cc3c[nH]cn3)CC2)nc2ccsc12
Output: 1.39

Input: Please give the documented log10(CC50) of Cc1cc(C#N)cc(C)c1Oc1nc(NC2CCN(Cc3ccc(S(C)(=O)=O)cc3)CC2)nc2cc[nH]c12
Output: 0.91

Input: Please give the documented log10(CC50) of Cc1cn([C@H]2C[C@H](N=[N+]=[N-])[C@@H](CO)O2)c(=O)[nH]c1=O
Output: 0.87

Input: Please give the documented log10(CC50) of Cc1cc(C#N)cc(C)c1Oc1nc(NC2CCN(Cc3ccc(S(N)(=O)=O)cc3)CC2)nc2ccn(S(=O)(=O)c3ccccc3)c12
Output: 0.56

Input: Please give the documented log10(CC50) of Cc1cc(C#Cc2cccnc2)cc(C)c1Oc1nc(NC2CCN(Cc3ccc(S(N)(=O)=O)cc3)CC2)nc2ccsc12
Output: 0.81

Input: Please give the documented log10(CC50) of Cc1cc(C#Cc2ccncc2)cc(C)c1Oc1nc(NC2CCN(Cc3ccc(S(N)(=O)=O)cc3)CC2)nc2ccsc12
Output: 1.06

Input: Please give the documented log10(CC50) of Cc1cc(/C=C/C#N)cc(C)c1Nc1nc(NC2CCN(Cc3ccc(S(N)(=O)=O)cc3)CC2)nc2ccsc12
Output: 0.36

Input: Please give the documented log10(CC50) of Cc1cc(C#N)cc(C)c1Oc1nc(NC2CCN(Cc3ccc(N4CCCC4)cc3)CC2)nc2ccsc12
Output: 0.64

Input: Please give the documented log10(CC50) of Cc1cc(C#N)cc(C)c1Oc1nc(NC2CCN(Cc3ccc(C(N)=O)cc3)CC2)nc2ccn(COCc3ccccc3)c12
Output: 0.81

Input: Please give the documented log10(CC50) of Cc1cc(C#Cc2ccccn2)cc(C)c1Oc1nc(NC2CCN(Cc3ccc(S(N)(=O)=O)cc3)CC2)nc2ccsc12
Output: 1.01

Input: Please give the documented log10(CC50) of Cc1cc(C#N)cc(C)c1Oc1nc(NC2CCN(Cc3ccc(S(C)(=O)=O)cc3)CC2)nc2ccn(S(=O)(=O)c3ccccc3)c12
Output: 0.71

Input: Please give the documented log10(CC50) of Cc1cc(C#N)cc(C)c1Oc1nc(NC2CCN(Cc3cn(S(C)(=O)=O)cn3)CC2)nc2ccsc12
Output: 1.32

---

test: Selectivity index, ratio of CC50 for human MT4 cells to EC50 for wild-type HIV1 3B reverse transcriptase infected in human MT4 cells; type: toxicity, cell-based; conditions: read-out: Ratio CC50/EC50
Under this convention, 1 denotes selectivity ratio strictly below 500 and -1 denotes selectivity ratio at or above 500.

Input: Please indicate whether the reported selectivity ratio of Cc1cc(/C=C/C#N)cc(C)c1Nc1nc(NC2CCN(Cc3ccc(S(N)(=O)=O)cc3)CC2)nc2ccsc12 is strictly below 500.
Output: -1

Input: Please indicate whether the reported selectivity ratio of Cc1cc(C#Cc2ccccn2)cc(C)c1Oc1nc(NC2CCN(Cc3ccc(S(N)(=O)=O)cc3)CC2)nc2ccsc12 is strictly below 500.
Output: -1

Input: Please indicate whether the reported selectivity ratio of Cc1cc(C#N)cc(C)c1Oc1nc(NC2CCN(Cc3ccc(S(N)(=O)=O)cc3)CC2)nc2ccn(S(=O)(=O)c3ccccc3)c12 is strictly below 500.
Output: 1

Input: Please indicate whether the reported selectivity ratio of Cc1cc(C#N)cc(C)c1Oc1nc(NC2CCN(Cc3ccc(C(N)=O)cc3)CC2)nc2ccn(COCc3ccccc3)c12 is strictly below 500.
Output: 1

Input: Please indicate whether the reported selectivity ratio of Cc1cc(C#N)cc(C)c1Oc1nc(NC2CCN(Cc3ccc(S(N)(=O)=O)cc3)CC2)nc2cc[nH]c12 is strictly below 500.
Output: -1

---

test: Selectivity index, ratio of CC50 for human MT4 cells to EC50 for wild-type HIV1 3B reverse transcriptase infected in human MT4 cells; type: toxicity, cell-based; conditions: read-out: Ratio CC50/EC50
Would you kindly list selectivity ratio for each of these molecules?
Output: the number by itself.

Input: Please give the documented selectivity ratio of Cc1cc(C#Cc2cccnc2)cc(C)c1Oc1nc(NC2CCN(Cc3ccc(S(N)(=O)=O)cc3)CC2)nc2ccsc12
Output: 157

Input: Please give the documented selectivity ratio of Cc1cc(C#N)cc(C)c1Oc1nc(NC2CCN(Cc3cn(S(C)(=O)=O)cn3)CC2)nc2ccsc12
Output: 3720

Input: Please give the documented selectivity ratio of Cc1cc(C#N)cc(C)c1Oc1nc(NC2CCN(Cc3c[nH]cn3)CC2)nc2ccsc12
Output: 4420

Input: Please give the documented selectivity ratio of Cc1cc(C#N)cc(C)c1Oc1nc(NC2CCN(Cc3ccc(N4CCCC4)cc3)CC2)nc2ccsc12
Output: 133

Input: Please give the documented selectivity ratio of Cc1cc(C#N)cc(C)c1Oc1nc(NC2CCN(Cc3cc(=O)[nH]c(=O)[nH]3)CC2)nc2ccsc12
Output: 18600

Input: Please give the documented selectivity ratio of Cc1cc(C#N)cc(C)c1Oc1nc(NC2CCN(Cc3ccc(C(N)=O)cc3)CC2)nc2ccn(S(=O)(=O)c3ccccc3)c12
Output: 227

Input: Please give the documented selectivity ratio of Cc1cc(C#N)cc(C)c1Oc1nc(NC2CCN(Cc3ccc(S(C)(=O)=O)cc3)CC2)nc2ccn(COCc3ccccc3)c12
Output: 459

---

tested on: MT4; assay: Cytotoxicity against human MT4 cells assessed as reduction in cell viability by MTT assay; assay type: cell-based; details: mt4
reported metric: CC50

Input: Please give the documented CC50 of Cc1cc(C#N)cc(C)c1Oc1nc(NC2CCN(Cc3ccc(C(N)=O)cc3)CC2)nc2ccn(S(=O)(=O)c3ccccc3)c12
Output: > 39.3 µM

---

test: Cytotoxicity against human MT4 cells assessed as reduction in cell viability by MTT assay; assay type: cell-based; conditions: MT4 cells
Under this convention, MET denotes CC50 strictly below 5 µM and NOT MET denotes CC50 at or above 5 µM.

Input: Please indicate whether the reported CC50 of Cc1cc(C#N)cc(C)c1Oc1nc(NC2CCN(Cc3cc(=O)[nH]c(=O)[nH]3)CC2)nc2ccsc12 is strictly below 5 µM.
Output: NOT MET

Input: Please indicate whether the reported CC50 of Cc1cc(C#N)cc(C)c1Oc1nc(NC2CCN(Cc3ccc(C(N)=O)cc3)CC2)nc2cc[nH]c12 is strictly below 5 µM.
Output: NOT MET

Input: Please indicate whether the reported CC50 of O=C1Nc2ccc(Cl)cc2[C@@](C#CC2CC2)(C(F)(F)F)O1 is strictly below 5 µM.
Output: NOT MET

Input: Please indicate whether the reported CC50 of Cc1cc(C#N)cc(C)c1Oc1nc(NC2CCN(Cc3ccc(S(C)(=O)=O)cc3)CC2)nc2ccn(COCc3ccccc3)c12 is strictly below 5 µM.
Output: NOT MET

Input: Please indicate whether the reported CC50 of Cc1cc(C#N)cc(C)c1Oc1nc(NC2CCN(Cc3ccc(S(N)(=O)=O)cc3)CC2)nc2ccn(COCc3ccccc3)c12 is strictly below 5 µM.
Output: MET

Input: Please indicate whether the reported CC50 of Cc1ccnc2c1NC(=O)c1cccnc1N2C1CC1 is strictly below 5 µM.
Output: NOT MET

Input: Please indicate whether the reported CC50 of Cc1cc(C#N)cc(C)c1Oc1nc(NC2CCN(Cc3ccc(S(N)(=O)=O)cc3)CC2)nc2cc[nH]c12 is strictly below 5 µM.
Output: MET

Input: Please indicate whether the reported CC50 of Cc1cc(C#N)cc(C)c1Nc1nc(NC2CCN(Cc3ccc(S(N)(=O)=O)cc3)CC2)nc2ccsc12 is strictly below 5 µM.
Output: NOT MET

---

test: Selectivity index, ratio of CC50 for human MT4 cells to EC50 for HIV1 RES056 reverse transcriptase K103N/Y181C double mutant infected in human MT4 cells; assay type: toxicity, cell-based; details: read-out: Ratio CC50/EC50
Would you kindly list selectivity ratio for each of these molecules?
Output: the number by itself.

Input: Please give the documented selectivity ratio of Cc1cc(C#N)cc(C)c1Oc1nc(NC2CCN(Cc3ccc(C(N)=O)cc3)CC2)nc2ccn(COCc3ccccc3)c12
Output: 9

Input: Please give the documented selectivity ratio of Cc1cc(C#N)cc(C)c1Oc1nc(NC2CCN(Cc3ccc(C(N)=O)cc3)CC2)nc2ccn(S(=O)(=O)c3ccccc3)c12
Output: 2

Input: Please give the documented selectivity ratio of Cc1cc(C#N)cc(C)c1Oc1nc(NC2CCN(Cc3ccc(S(C)(=O)=O)cc3)CC2)nc2ccn(COCc3ccccc3)c12
Output: 17
